Source of measurements: paper PMC9822066

target_under_test: BuChE from equine serum (eqBuChE) (Equus caballus)
Sequence (P81908 whole entry): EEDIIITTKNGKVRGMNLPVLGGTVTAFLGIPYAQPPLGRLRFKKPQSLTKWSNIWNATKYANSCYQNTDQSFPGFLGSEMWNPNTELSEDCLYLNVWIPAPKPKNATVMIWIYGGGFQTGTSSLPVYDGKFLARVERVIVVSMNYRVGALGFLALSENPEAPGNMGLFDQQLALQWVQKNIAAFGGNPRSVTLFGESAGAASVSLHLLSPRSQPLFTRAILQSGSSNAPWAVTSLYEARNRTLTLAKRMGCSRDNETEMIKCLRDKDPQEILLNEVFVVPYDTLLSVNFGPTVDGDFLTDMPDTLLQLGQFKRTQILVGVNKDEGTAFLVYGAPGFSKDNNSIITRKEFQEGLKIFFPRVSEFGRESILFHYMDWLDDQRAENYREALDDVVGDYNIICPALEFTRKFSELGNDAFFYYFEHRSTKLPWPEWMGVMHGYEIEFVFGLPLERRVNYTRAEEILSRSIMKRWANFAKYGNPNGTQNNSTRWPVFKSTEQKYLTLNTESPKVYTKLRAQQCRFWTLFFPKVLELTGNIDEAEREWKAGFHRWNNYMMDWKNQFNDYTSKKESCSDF
run_description: biochemical
condition_description: mean ± SEM, triplicate independent experiments
Reported IC50 maps to class as: lower level: < 1 µM; middle level: ≥ 1 µM and < 2 µM; upper level: ≥ 2 µM

compound | target_under_test | label_class
CC1CCCN(CCCCCOc2ccccc2C(=O)c2ccccc2)C1.O=C(O)C(=O)O (stereo not drawn) | BuChE from equine serum (eqBuChE) (Equus caballus) | middle level

[in] Would you mind sorting CC1CCN(CCCCCCOc2cccc(C(=O)c3ccccc3)c2)CC1 into the appropriate category?
[out] middle level

[in] Would you mind sorting CC1CCCN(CCCCCOc2cccc(C(=O)c3ccccc3)c2)C1 (stereo not drawn) into the appropriate category?
[out] upper level

[in] Would you mind sorting O=C(c1ccccc1)c1ccc(OCCCCCN2CCCCC2)cc1 into the appropriate category?
[out] upper level

[in] Would you mind sorting O=C(c1ccccc1)c1ccc(OCCCCCCN2CCCCCC2)cc1 into the appropriate category?
[out] middle level

[in] Would you mind sorting CC1CCCN(CCCCCOc2ccc(C(=O)c3ccc(F)cc3)cc2)C1 (stereo not drawn) into the appropriate category?
[out] lower level

[in] Would you mind sorting O=C(O)C(=O)O.O=C(c1ccccc1)c1ccccc1OCCCCCN1CCCCCC1 into the appropriate category?
[out] lower level

[in] Would you mind sorting CC1CCN(CCCCCCOc2ccc(C(=O)c3ccccc3)cc2)CC1 into the appropriate category?
[out] middle level
